The reported measurements were obtained from patent US11667645B2.

molecules and their reported IC50
molecular target: Granzyme B (human lymphocytes) (Homo sapiens (Human)); test: human Granzyme B biochemical assay; conditions: Granzyme B (human lymphocytes) 5 nM, substrate Ac-IETD-AFC 200 μM, Cpd incubation with enzyme 30 mins, 22° C., read time 60 mins; read-out: IC50
Sequence (P10144 21-247): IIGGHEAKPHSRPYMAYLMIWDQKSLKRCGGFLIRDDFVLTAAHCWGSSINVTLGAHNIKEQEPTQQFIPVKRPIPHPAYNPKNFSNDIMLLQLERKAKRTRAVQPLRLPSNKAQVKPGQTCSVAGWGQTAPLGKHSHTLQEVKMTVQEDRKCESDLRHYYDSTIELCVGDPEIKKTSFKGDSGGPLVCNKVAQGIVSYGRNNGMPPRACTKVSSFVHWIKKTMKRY

*Q* Consider the molecule O=C(Cc1csc2ccccc12)N[C@H](C(=O)N[C@H]1CCc2cccc3c2N(C1=O)[C@H](C(=O)NCc1c[nH]nn1)C3)C1CCCC1 [Compound C075] . State its measured IC50.
*A* 1 to 300 nM

*Q* Consider the molecule CC[C@H](C)[C@H](NC(=O)Cc1cc2ccccc2o1)C(=O)N[C@H]1CCc2cccc3c2N(C1=O)[C@H](C(=O)NCc1c[nH]nn1)C3 [Compound C159] . State its measured IC50.
*A* 1 to 300 nM

*Q* Consider the molecule CC[C@H](C)[C@H](NC(=O)CC1Cc2ccccc2O1)C(=O)N[C@H]1CCc2cccc3c2N(C1=O)[C@H](C(=O)NCc1c[nH]nn1)C3 (stereo partly drawn) [Compound C173] . State its measured IC50.
*A* 1 to 300 nM

*Q* Consider the molecule CC(=O)N[C@H](C(=O)N[C@H]1CCc2cccc3c2N(C1=O)[C@H](C(=O)NCc1c[nH]nn1)C3)C(C)C [Compound C025] . State its measured IC50.
*A* 1 to 300 nM

*Q* Consider the molecule CC[C@H](C)[C@H](NC(=O)Cc1ccccc1)C(=O)N[C@H]1CCc2cccc3c2N(C1=O)[C@H](C(=O)NCc1c[nH]nn1)C3 [Compound C017] . State its measured IC50.
*A* 1 to 300 nM
